- protocol.notes: Inhibition of adenylyl cyclase
Listed compounds paired with reported Log Ki
measurement.kind: Log Ki

>>> result_number("CNc1ccccc1C(=O)O[C@H]1C[C@H](n2cnc3c(=O)[nH]c(N)nc32)O[C@@H]1COP(=O)(O)OP(=O)(O)OP(=O)(O)O")
-7.35
>>> result_number("O=c1ccn([C@@H]2O[C@H](COP(=O)(O)OP(=O)(O)OP(=O)(O)O)[C@@H](O)[C@H]2O)c(=O)[nH]1 [URIDINE TRIPHOSPHATE]")
-4
>>> result_number("CNc1ccccc1C(=O)OC1C(n2cnc3c(N)ncnc32)O[C@@H]2COP(=O)(O)O[C@@H]12 (single isomer, unassigned)")
-4
>>> result_number("O=c1ccn([C@@H]2O[C@H](COP(=O)(O)OP(=O)(O)OP(=O)(O)S)[C@@H](O)[C@H]2O)c(=O)[nH]1 (some centres not stated)")
-5.07
>>> result_number("O=P(O)(OC[C@H]1O[C@@H](n2cnc3c(O)ncnc32)[C@H](O)[C@@H]1O)OP(=O)(O)OP(O)(O)=S")
-5.92
>>> result_number("CNc1ccccc1C(=O)NCCCCCCNc1ncnc2c1ncn2[C@H]1O[C@@H]2COP(=O)(O)O[C@H]2[C@@H]1O")
-4.37
>>> result_number("CNc1ccccc1C(=O)O[C@H]1C[C@H](n2cnc3c(=O)[nH]c(N)nc32)O[C@@H]1COP(=O)(O)OP(=O)(O)O")
-5.47
